Values were extracted from patent US6908919B2.

Target: UniProt:P00742
Sequence (P00742 41-179 limits assumed): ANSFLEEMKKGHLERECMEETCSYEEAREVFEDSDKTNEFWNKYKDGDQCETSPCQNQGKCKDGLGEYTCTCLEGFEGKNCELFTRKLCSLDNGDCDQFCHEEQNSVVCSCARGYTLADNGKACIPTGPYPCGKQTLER
Sequence (P00742 235-488 limits assumed): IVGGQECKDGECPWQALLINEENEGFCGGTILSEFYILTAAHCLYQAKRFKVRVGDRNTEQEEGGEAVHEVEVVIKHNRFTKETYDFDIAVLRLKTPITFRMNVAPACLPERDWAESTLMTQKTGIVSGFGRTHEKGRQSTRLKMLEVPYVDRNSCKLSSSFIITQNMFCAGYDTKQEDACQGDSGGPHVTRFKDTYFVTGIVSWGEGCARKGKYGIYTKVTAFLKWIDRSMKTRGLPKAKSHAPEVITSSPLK
Assay: Xa Assay
Format: biochemical
Design: purchased Enzyme Research Laboratories, South Bend Ind
Details: at 30 µM inhibitor
Outcome label depends on % Inhibition Factor Xa (30 µM) relative to 20%: at/above gives 1.0, below gives 0.0.

Solved entries:
[[record]]
molecule = "N=C(N)c1ccc(CNC(=O)Cn2c(-c3ccc4c(c3)OCO4)c(Cl)nc(NCCc3ccncc3)c2=O)cc1"
class_assignment = 1.0

[[record]]
molecule = "N=C(N)c1ccc(CNC(=O)Cn2c(-c3ccccc3)c(Cl)nc(NC3CCCCCC3)c2=O)cc1 [1512-16]"
class_assignment = 0.0

[[record]]
molecule = "C[C@@H](C(=O)NCc1ccc(C(=N)N)cc1)n1c(-c2ccccc2)c(Cl)nc(NCc2ccccc2)c1=O"
class_assignment = 0.0

[[record]]
molecule = "N=C(N)c1ccc(CNC(=O)Cn2c(-c3cccc(Cl)c3)c(Cl)nc(NCCc3cccnc3)c2=O)cc1"
class_assignment = 1.0

[[record]]
molecule = "N=C(N)c1ccc(CNC(=O)Cn2c(-c3ccccc3)c(Cl)nc(NCCCc3ccccc3)c2=O)cc1"
class_assignment = 0.0


Record COc1ccc(-c2c(Cl)nc(NCCc3ccncc3)c(=O)n2CC(=O)NCc2ccc(C(=N)N)cc2)cc1 ; criterion: % Inhibition Factor Xa (30 µM) no lower than 20%. Met?
0.0

Please do the same for N=C(N)c1ccc(CNC(=O)Cn2c(-c3cccc(Cl)c3)c(Cl)nc(NCCc3cccc(Cl)c3)c2=O)cc1 as well.
1.0
